Molecular target: GLP1R (Homo sapiens, UniProt P43220)
Sequence (P43220 24-463): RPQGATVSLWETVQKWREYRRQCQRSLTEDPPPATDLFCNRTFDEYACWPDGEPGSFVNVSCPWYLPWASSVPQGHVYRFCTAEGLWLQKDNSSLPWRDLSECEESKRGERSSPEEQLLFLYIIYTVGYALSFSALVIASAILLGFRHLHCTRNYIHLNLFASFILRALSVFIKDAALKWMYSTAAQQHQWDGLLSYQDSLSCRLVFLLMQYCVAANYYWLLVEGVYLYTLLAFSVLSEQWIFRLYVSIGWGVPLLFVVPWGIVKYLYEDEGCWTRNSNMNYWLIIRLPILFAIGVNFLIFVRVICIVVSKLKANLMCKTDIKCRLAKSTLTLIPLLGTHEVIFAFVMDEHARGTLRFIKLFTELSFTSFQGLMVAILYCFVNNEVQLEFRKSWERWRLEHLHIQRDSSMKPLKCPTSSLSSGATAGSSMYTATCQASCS
Assay: GLP1R cAMP assay, CHO cells stably expressing human GLP-1R
Type: cell-based
Settings: CHO cells stably expressing GLP-1R, read-out: CHO cAMP stable EC50
pEC50: −log10 of the molar value.
Each record here notes measured pEC50.

Completed entries (count: 4):
N#Cc1ccc(COc2cccc(C3=CCN(Cc4nc5ccc(C(=O)O)nc5n4C[C@@H]4CCO4)CC3)n2)c(F)c1 [Compound 225]    ≥ 7.82
N#Cc1ccc(COc2cncc(C3CCN(Cc4nc5ccc(C(=O)O)cc5n4C[C@@H]4CCO4)CC3)n2)c(F)c1 [Compound 22]    ≥ 6.00
O=C(O)c1ccc2nc(CN3CC=C(c4ccc(F)c(OCc5ccc(Cl)cc5F)c4)CC3)n(C[C@@H]3CCO3)c2c1F [Compound 238]    ≥ 6.82
N#Cc1ccc(COc2cccc(N3CCC(Cc4nc5ccc(C(=O)O)nc5n4C[C@@H]4CCO4)CC3)n2)c(F)c1 [Compound 227]    ≥ 6.82

*Q* Given the compound O=C(O)c1ccc2nc(CN3CC=C(c4ccc(F)c(OCc5ccc(Cl)cc5F)c4)CC3)n(C[C@@H]3CCO3)c2n1 [Compound 236] , what is its reported pEC50?
*A* ≥ 6.82

*Q* Find the recorded pEC50 belonging to O=C(O)c1ccc2nc(CN3CC=C(c4cccc(OCc5ccc(Cl)cc5F)c4)CC3)n(C[C@@H]3CCO3)c2c1 [Compound 28] and report it.
*A* ≥ 6.82

*Q* Look at this compound and give its reported pEC50. O=C(O)c1ccc2nc(CN3CC=C(c4cccc(OCc5ccc(-n6ccnc6)cc5)n4)CC3)n(C[C@@H]3CCO3)c2n1 [Compound 245]
*A* ≥ 7.82

----------
EC50 listing for selected compounds.
Molecular target: GLP1R (Homo sapiens, UniProt P43220)
Experiment: GLP1R cAMP HTRF assay, HEK293/GLP-1R/CRE/Luc (HEK293T cells)
Assay type: cell-based
Settings: read-out: EC50

Completed entries (count: 6):
O=C(O)c1ccc2nc(CN3CCN(c4ccc5ccn(Cc6ccc(Cl)cc6F)c5n4)CC3)n(C[C@@H]3CCO3)c2c1 [Compound 13]    ≤ 150 nM
CC(C)(C)c1ccc(COc2cccc(C3=CCN(Cc4nc5ccc(C(=O)O)cc5n4C[C@@H]4CCO4)CC3)n2)cc1 [Compound 147]    ≤ 1000 nM
N#Cc1ccc(COc2cccc(C3=CCN(Cc4nc5ccc(C(=O)O)nc5n4C[C@@H]4CCO4)CC3)n2)c(F)c1 [Compound 225]    ≤ 15 nM
N#Cc1ccc(COc2cccc(N3CCC(Cc4nc5ccc(C(=O)O)cc5n4C[C@@H]4CCO4)CC3)n2)c(F)c1 [Compound 226]    ≤ 15 nM
O=C(O)c1ccc2nc(CN3CC=C(c4cccc(OCc5ccc(Cl)cc5F)n4)CC3)n(C[C@@H]3CCO3)c2c1 [Compound 221]    ≤ 15 nM
O=C(O)c1ccc2nc(CN3CC=C(c4nc(NCc5ccc(Cl)cc5F)c(F)cc4F)CC3)n(C[C@@H]3CCO3)c2c1 [Compound 133]    ≤ 15 nM

// below: EC50 requested for another compound
*Q* Suppose we examine the compound O=C(O)c1ccc2nc(CN3CC=C(c4cccc(OC5CCOc6cc(Cl)ccc65)n4)CC3)n(C[C@@H]3CCO3)c2c1 (stereo partly shown) [Compound 69] ; what EC50 value has been reported?
*A* ≤ 1000 nM

----------
Biological target: GLP1R (Homo sapiens)
Assay: GLP-1R/β-Arrestin recruitment assay (PathHunter eXpress GLP1R CHO-K1 β-Arrestin GPCR Assay)
Type: cell-based
Set-up: host or cells: PathHunter CHO-K1 GLP1R β-Arrestin cells
Conditions: averaged Bmax, percentage of control GLP-1 (7-37), highest concentration tested
VALUE TYPE: Bmax (POC)

For orientation, consider the following solved cases.
O=C(O)c1ccc2nc(CN3CC=C(c4cccc(OCc5ccc(Cl)cc5F)n4)CC3)n(C[C@@H]3CCO3)c2c1 [Compound 221]    35.6
N#Cc1ccc(COc2cccc(C3=CCN(Cc4nc5ccc(C(=O)O)cc5n4C[C@@H]4CCO4)CC3)n2)c(F)c1 [Compound 19]    26.0
O=C(O)c1ccc2nc(CN3CC=C(c4ccc(F)c(OCc5ccc(Cl)cc5F)c4)CC3)n(C[C@@H]3CCO3)c2c1F [Compound 238]    55.8
O=C(O)c1ccc2nc(CN3CC=C(c4ccc(F)c(OCc5ccc(Cl)cc5F)c4)CC3)n(C[C@@H]3CCO3)c2n1 [Compound 236]    40.3
N#Cc1ccc(COc2nccc(N3CCN(Cc4nc5ccc(C(=O)O)cc5n4C[C@@H]4CCO4)CC3)n2)c(F)c1 [Compound 10]    4.48

1: O=C(O)c1ccc2nc(CN3CCC(c4cccc(OCc5ccc(Cl)cc5F)c4)CC3)n(C[C@@H]3CCO3)c2c1 [Compound 239]
2: O=C(O)c1ccc2nc(CN3CC=C(c4cccc(OCc5ccc(Cl)cc5F)c4)CC3)n(C[C@@H]3CCO3)c2c1F [Compound 237]
3: O=C(O)c1ccc2nc(CN3CCN(c4cncc(OCc5ccc(Cl)cc5F)n4)CC3)n(C[C@@H]3CCO3)c2c1 [Compound 11]
4: O=C(O)c1ccc2nc(CN3CCN(c4cccc(NCc5ccc(Cl)cc5F)n4)CC3)n(C[C@@H]3CCO3)c2c1 [Compound 1]
5: N#Cc1ccc(COc2cncc(C3CCN(Cc4nc5ccc(C(=O)O)cc5n4C[C@@H]4CCO4)CC3)n2)c(F)c1 [Compound 22]
*Q* Would you mind ranking these compounds by ascending Bmax (POC)? Dear reader, please state the labels in the requested order.
*A* 4, 3, 5, 1, 2
(4: 2.80 POC, 3: 7.16 POC, 5: 10.9 POC, 1: 25.6 POC, 2: 37.9 POC)

A: O=C(O)c1ccc2nc(CN3CC=C(c4cncc(OCc5ccc(Cl)cc5F)n4)CC3)n(C[C@@H]3CCO3)c2c1 [Compound 34]
B: N#Cc1ccc(COc2cncc(N3CCN(Cc4nc5ccc(C(=O)O)cc5n4C[C@@H]4CCO4)CC3)n2)c(F)c1 [Compound 12]
*Q* Determine, for A and B , which has the greater value of Bmax (POC). Pick one; state its label.
*A* A
(A: 20.2 POC, B: 9.66 POC)

A: N#Cc1ccc(COc2cncc(C3=CCN(Cc4nc5ccc(C(=O)O)cc5n4C[C@@H]4CCO4)CC3)n2)c(F)c1 [Compound 23]
B: O=C(O)c1ccc2nc(CN3CC=C(c4ccc(F)c(OCc5ccc(Cl)cc5F)c4)CC3)n(C[C@@H]3CCO3)c2c1 [Compound 29]
*Q* Would you kindly point out which of A and B has the smaller Bmax (POC) figure? Bench note: the answer is the label of the chosen record.
*A* A
(A: 18.2 POC, B: 36.6 POC)

----------
Test: Monkey oral pharmacokinetic (PK) study, non-naïve Cynomolgus male monkeys
Format: in vivo
Conditions: male, cynomolgus monkey, plasma; oral, Dose 1
VALUE TYPE: Tmax (h)

O=C(O)c1ccc2nc(CN3CC=C(c4cccc(OCc5ccc(Cl)cc5F)c4)CC3)n(C[C@@H]3CCO3)c2c1 [Compound 28]    3.3
N#Cc1ccc(COc2cccc(C3=CCN(Cc4nc5ccc(C(=O)O)cc5n4C[C@@H]4CCO4)CC3)n2)c(F)c1 [Compound 19]    2.7

----------
The entries below come with measured pEC50 values attached.
Biological target: GLP1R (Homo sapiens, UniProt P43220)
Experiment: GLP1R cAMP HTRF assay, HEK293/GLP-1R/CRE/Luc (HEK293T cells)
Format: cell-based
Conditions: read-out: EC50
pEC50: −log10 of the molar value.

O=C(O)c1ccc2nc(CN3CC=C(c4cccc(OCc5cc(Cl)ccc5F)n4)CC3)n(C[C@@H]3CCO3)c2c1    ≥ 6.82
O=C(O)c1ccc2nc(CN3CC=C(c4ncc(F)c(NCc5ccc(Cl)cc5F)n4)CC3)n(C[C@@H]3CCO3)c2c1    ≥ 6.82
CC(Oc1cccc(C2=CCN(Cc3nc4ccc(C(=O)O)cc4n3C[C@@H]3CCO3)CC2)n1)c1ccc(Cl)cc1F (some centres unmarked)    ≥ 7.82

*Q* What value of measured pEC50 is listed for "N#Cc1ccc(COc2nccc(C3=CCN(Cc4nc5ccc(C(=O)O)cc5n4C[C@@H]4CCO4)CC3)n2)c(F)c1" ?
*A* ≥ 7.82

*Q* Entry "O=C(O)c1ccc2nc(CN3CC=C(c4cccc(OCc5ccc6c(c5)OC(F)(F)O6)n4)CC3)n(C[C@@H]3CCO3)c2c1" : reported pEC50 = ?
*A* ≥ 7.82

----------
Recorded EC50 for the following compounds
Target: UniProt:P43220
Assay: GLP1R cAMP HTRF assay, HEK293/GLP-1R/CRE/Luc (HEK293T cells)
Assay type: cell-based
Conditions: read-out: EC50

Before answering, review these 5 worked examples.
O=C(O)c1ccc2nc(CN3CC=C(c4cccc(OCc5ccc(-c6cccnc6)cc5)n4)CC3)n(C[C@@H]3CCO3)c2c1    ≤ 15 nM
O=C(O)c1ccc2nc(CN3CC=C(c4cc(OCc5ccc(Cl)cc5F)ncc4F)CC3)n(C[C@@H]3CCO3)c2c1    ≤ 150 nM
O=C(O)c1ccc2nc(CN3CCN(c4nccc(OCc5ccc(Cl)cc5F)n4)CC3)n(C[C@@H]3CCO3)c2c1    ≤ 15 nM
O=C(O)c1ccc2nc(CN3CCN(c4cc(OCc5ccc(Cl)cc5F)ccc4F)CC3)n(C[C@@H]3CCO3)c2c1    ≤ 150 nM
O=C(O)c1ccc2nc(CN3CC=C(c4ccnc(OCc5ccc(Cl)cc5F)n4)CC3)n(C[C@@H]3CCO3)c2c1    ≤ 15 nM

*Q* Which EC50 value belongs to "Cn1c(CN2CCN(c3cccc(OCc4ccc(Cl)cc4F)n3)CC2)cc2ccc(C(=O)O)cc21" ?
*A* > 1000 nM

*Q* Given "O=C(O)c1ccc2nc(CN3CCN(c4ccc(F)c(OCc5ccc(C#CC6CC6)cc5F)c4)CC3)n(C[C@@H]3CCO3)c2c1" , state its recorded EC50.
*A* ≤ 150 nM
